- measured-on: bradykinin B2 receptor (segments of human umbilical vein) (Homo sapiens, UniProt P30411)
- Construct: determination of a pD2 value on segments of human umbilical vein; from tissue; host or cells: segments of human umbilical vein
- Sequence (P30411 1-391): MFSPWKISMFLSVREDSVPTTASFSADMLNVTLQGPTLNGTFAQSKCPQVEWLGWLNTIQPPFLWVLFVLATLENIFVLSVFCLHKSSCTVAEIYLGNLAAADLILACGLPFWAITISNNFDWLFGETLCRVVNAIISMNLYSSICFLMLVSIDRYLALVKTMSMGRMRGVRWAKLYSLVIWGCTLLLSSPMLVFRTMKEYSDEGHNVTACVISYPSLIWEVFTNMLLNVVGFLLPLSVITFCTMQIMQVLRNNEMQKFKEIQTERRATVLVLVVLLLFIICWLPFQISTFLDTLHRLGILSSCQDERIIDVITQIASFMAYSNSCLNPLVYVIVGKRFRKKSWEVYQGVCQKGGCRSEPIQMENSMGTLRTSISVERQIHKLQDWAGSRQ
- procedure-details: B2 receptor-dependent contraction of human umbilical vein segments
- Format: cell-based
- condition-label: calculated from concentrations causing B2 receptor-dependent contraction of human umbilical vein; read-out: pD2 (converted)
Overview of reported EC50 across a group of molecules:
quantity-measured: EC50 (µM)

structure-smiles-string	quantity-measured	unit-tag	assay-result
N=C(N)NCCC[C@@H](N)C(=O)N[C@@H](CCCNC(=N)N)C(=O)N1CCC[C@H]1C(=O)N1C[C@H](O)C[C@H]1C(=O)NCC(=O)N[C@@H](Cc1cccs1)C(=O)N[C@@H](CO)C(=O)N[C@@H]1COc2ccccc2N(CC(=O)N[C@@H](CCCNC(=N)N)C(=O)O)C1=O	EC50	µM	7.94
N=C(N)NCCC[C@@H](N)C(=O)N[C@@H](CCCNC(=N)N)C(=O)N1CCC[C@H]1C(=O)N1C[C@H](O)C[C@H]1C(=O)NCC(=O)N[C@@H](Cc1cccs1)C(=O)N[C@@H](CO)C(=O)N[C@@H]1CSc2ccccc2N(CC(=O)N[C@@H](CCCNC(=N)N)C(=O)O)C1=O	EC50	µM	0.2
Cc1ccc2c(c1)SC[C@@H](NC(=O)[C@H](CO)NC(=O)[C@H](Cc1cccs1)NC(=O)CNC(=O)[C@@H]1C[C@@H](O)CN1C(=O)[C@@H]1CCCN1C(=O)[C@H](CCCNC(=N)N)NC(=O)[C@H](N)CCCNC(=N)N)C(=O)N2CC(=O)N[C@@H](CCCNC(=N)N)C(=O)O	EC50	µM	0.0562
N=C(N)NCCC[C@H](NC(=O)CN1C(=O)[C@H](NC(=O)[C@H](CO)NC(=O)[C@H](Cc2cccs2)NC(=O)CNC(=O)[C@@H]2C[C@@H](O)CN2C(=O)[C@@H]2CCCN2C(=O)[C@H](CCCNC(=N)N)NC(=O)[C@@H](N)CCCCN)CSc2ccccc21)C(=O)O	EC50	µM	0.0794

----------
- measured-on: human B2 receptor cloned and transfected in a stable manner into a CHO cell line (Homo sapiens, UniProt P30411)
- Construct: expressed in transfected cells
- Sequence (P30411 1-391): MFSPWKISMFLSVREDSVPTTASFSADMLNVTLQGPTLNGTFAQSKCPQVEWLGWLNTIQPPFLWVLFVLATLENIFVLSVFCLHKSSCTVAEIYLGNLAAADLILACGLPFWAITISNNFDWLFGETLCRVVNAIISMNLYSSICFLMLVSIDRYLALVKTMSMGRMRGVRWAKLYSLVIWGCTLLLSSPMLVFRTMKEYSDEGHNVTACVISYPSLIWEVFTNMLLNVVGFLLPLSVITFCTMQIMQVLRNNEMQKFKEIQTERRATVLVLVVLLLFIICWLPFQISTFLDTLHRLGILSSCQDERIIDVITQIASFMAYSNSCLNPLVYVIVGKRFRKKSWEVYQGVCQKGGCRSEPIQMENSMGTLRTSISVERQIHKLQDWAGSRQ
- procedure-details: Binding to the cloned human bradykinin B2 receptor (CHO cell line)
- condition-label: affinity for cloned human B2 receptor stably transfected into CHO cells

structure-smiles-string	Ki (nM)
N=C(N)NCCC[C@H](NC(=O)CN1C(=O)[C@H](NC(=O)[C@H](CO)NC(=O)[C@H](Cc2cccs2)NC(=O)CNC(=O)[C@@H]2C[C@@H](O)CN2C(=O)[C@@H]2CCCN2C(=O)[C@H](CCCNC(=N)N)NC(=O)[C@@H](N)CCCCN)CSc2ccccc21)C(=O)O	0.07
Cc1ccc2c(c1)SC[C@@H](NC(=O)[C@H](CO)NC(=O)[C@H](Cc1cccs1)NC(=O)CNC(=O)[C@@H]1C[C@@H](O)CN1C(=O)[C@@H]1CCCN1C(=O)[C@H](CCCNC(=N)N)NC(=O)[C@H](N)CCCNC(=N)N)C(=O)N2CC(=O)N[C@@H](CCCNC(=N)N)C(=O)O	6
N=C(N)NCCC[C@H](NC(=O)CN1C(=O)[C@H](NC(=O)[C@H](CO)NC(=O)[C@H](Cc2ccccc2)NC(=O)CNC(=O)[C@@H]2CCCN2C(=O)[C@@H]2CCCN2C(=O)[C@@H](N)CCCNC(=N)N)CSc2ccccc21)C(=O)O	12.9
N=C(N)NCCC[C@@H](N)C(=O)N[C@@H](CCCNC(=N)N)C(=O)N1CCC[C@H]1C(=O)N1C[C@H](O)C[C@H]1C(=O)NCC(=O)N[C@@H](Cc1cccs1)C(=O)N[C@@H](CO)C(=O)N[C@@H]1CSc2ccccc2N(CC(=O)N[C@@H](CCCNC(=N)N)C(=O)O)C1=O	0.7
N=C(N)NCCC[C@@H](N)C(=O)N[C@@H](CCCNC(=N)N)C(=O)N1CCC[C@H]1C(=O)N1C[C@H](O)C[C@H]1C(=O)NCC(=O)N[C@@H](Cc1cccs1)C(=O)N[C@@H](CO)C(=O)N[C@@H]1COc2ccccc2N(CC(=O)N[C@@H](CCCNC(=N)N)C(=O)O)C1=O	2.5
